assay: Intrinsic clearance in human liver microsomes; assay type: ADME, Microsome
MEASUREMENT_KIND: microsomal CLint (µL/min/mg)
Please reply with the bare figure in µL/min/mg and do not write the unit itself.

Reference set, count: 2
{"MOLECULE": "CO[C@@H]1COCC[C@@H]1N(C)[C@@H]1CC[C@@](C(=O)N2CCN(c3cc(C(F)(F)F)ccn3)CC2)(C(C)C)C1", "microsomal CLint (µL/min/mg)": 58}
{"MOLECULE": "CC(C)[C@]1(C(=O)N2CCN(c3cc(C(F)(F)F)cnn3)CC2)CC[C@@H](NC2C3CCCC2COC3)C1 (stereo in doubt; 27)", "microsomal CLint (µL/min/mg)": 58}

Kindly consider the entry below.
**Query** Using the record for CO[C@@H]1COCC[C@@H]1N[C@@H]1CC[C@@](C(=O)N2CCN(c3cc(C(F)(F)F)ccn3)CC2)(C(C)C)C1 , report its microsomal CLint.
**Result** 9.3
